target-or-test-system: ATP-citrate synthase (Homo sapiens, UniProt P53396)
measured-attribute: IC50 (µM)
# value in µM; strip the unit string

Hey, ATP-citrate synthase (Homo sapiens, UniProt P53396) data for CCc1ccc(S(=O)(=O)Nc2cc3c(C(=O)O)c(C)oc3c3ccccc23)cc1 : IC50 came out at 13.8

----------
target-or-test-system: ATP-citrate synthase (Homo sapiens) (UniProt P53396)
Sequence (whole entry): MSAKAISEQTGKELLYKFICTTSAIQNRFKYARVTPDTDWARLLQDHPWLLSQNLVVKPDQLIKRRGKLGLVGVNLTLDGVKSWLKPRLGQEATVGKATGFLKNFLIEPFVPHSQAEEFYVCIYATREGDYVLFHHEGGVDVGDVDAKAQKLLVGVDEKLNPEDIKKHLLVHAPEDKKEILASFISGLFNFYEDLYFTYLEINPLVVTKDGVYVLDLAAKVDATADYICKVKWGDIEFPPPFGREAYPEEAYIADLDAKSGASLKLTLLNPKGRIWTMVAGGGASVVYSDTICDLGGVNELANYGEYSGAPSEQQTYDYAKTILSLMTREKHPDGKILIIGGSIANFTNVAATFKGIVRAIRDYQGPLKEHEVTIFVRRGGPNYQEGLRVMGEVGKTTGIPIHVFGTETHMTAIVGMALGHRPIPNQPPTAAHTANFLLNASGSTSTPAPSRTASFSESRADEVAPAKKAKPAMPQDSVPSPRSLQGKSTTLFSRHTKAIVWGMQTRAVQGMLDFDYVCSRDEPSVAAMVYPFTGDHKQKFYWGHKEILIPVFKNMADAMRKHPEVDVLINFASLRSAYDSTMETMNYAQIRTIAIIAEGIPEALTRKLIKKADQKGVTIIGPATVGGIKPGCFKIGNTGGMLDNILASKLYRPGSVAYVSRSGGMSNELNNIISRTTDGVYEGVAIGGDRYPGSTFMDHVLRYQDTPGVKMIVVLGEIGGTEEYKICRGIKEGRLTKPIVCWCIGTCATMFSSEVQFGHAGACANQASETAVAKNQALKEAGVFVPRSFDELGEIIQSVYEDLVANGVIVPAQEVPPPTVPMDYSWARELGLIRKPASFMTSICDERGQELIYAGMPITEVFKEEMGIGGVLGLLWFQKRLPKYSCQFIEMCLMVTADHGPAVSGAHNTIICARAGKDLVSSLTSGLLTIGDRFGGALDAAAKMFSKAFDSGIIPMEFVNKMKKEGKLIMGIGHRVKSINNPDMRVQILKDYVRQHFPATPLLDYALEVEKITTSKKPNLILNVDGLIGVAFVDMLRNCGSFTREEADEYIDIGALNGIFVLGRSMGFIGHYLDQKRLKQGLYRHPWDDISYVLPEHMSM
procedure-text: Inhibition of ATP citrate lyase (unknown origin) at 10 uM using sodium citrate as substrate in presence of CoA/ATP by ADP-Glo luminescence assay relative to control
measured-attribute: inhibition (%)
# value in %; strip the unit string

Worked set:
compound=Cc1oc(C(=O)O)cc1COc1ccc2c(c1)oc(=O)c1ccccc12 units_text=% measurement=3
compound="Cc1oc2ccc(OC(C(=O)O)c3ccccc3)cc2c1C(=O)O (configuration not stated)" units_text=% measurement=6
compound=CCc1ccc(S(=O)(=O)Nc2cc3c(C(=O)O)c(C)oc3c3ccccc23)cc1 units_text=% measurement=42

Hey, ATP-citrate synthase (Homo sapiens) (UniProt P53396) data for Cc1oc2c(cc(NS(=O)(=O)c3ccc(F)cc3)c3ccccc32)c1C(=O)O : inhibition came out at 28

Hey, ATP-citrate synthase (Homo sapiens) (UniProt P53396) data for Cc1oc(C(=O)O)cc1COc1ccc2c(oc(=O)c3ccccc32)c1C : inhibition came out at 32

Hey, ATP-citrate synthase (Homo sapiens) (UniProt P53396) data for O=C(O)c1ccc(COc2ccc3c(c2)oc(=O)c2ccccc23)o1 : inhibition came out at 9

----------
target-or-test-system: ATP-citrate synthase (Homo sapiens) (UniProt P53396)
procedure-text: Inhibition of ATP citrate lyase (unknown origin) at 100 uM using sodium citrate as substrate in presence of CoA/ATP by ADP-Glo luminescence assay relative to control
measured-attribute: inhibition (%)
# value in %; strip the unit string

molecule=Cc1oc2c(cc(NS(=O)(=O)c3ccc(F)cc3)c3ccccc32)c1C(=O)O measurement=95
molecule=Cc1oc(C(=O)O)cc1COc1ccc2c(C)c(Cc3ccccc3)c(=O)oc2c1 measurement=101
molecule=CCCCCCc1cc2c3c(c(=O)oc2cc1OCc1cc(C(=O)O)oc1C)CCCC3 measurement=100
molecule=Cc1oc2c(cc(NS(=O)(=O)c3ccc(C(C)(C)C)cc3)c3ccccc32)c1C(=O)O measurement=59
molecule=Cc1oc(C(=O)O)cc1COc1ccc2c3c(c(=O)oc2c1C)CCCC3 measurement=90
molecule=Cc1c(OCc2ccc(C(=O)O)o2)ccc2c3c(c(=O)oc12)CCCC3 measurement=88
molecule="Cc1oc2ccc(OC(C(=O)O)c3ccccc3)cc2c1C(=O)O (configuration not stated)" measurement=9
molecule=Cc1oc(C(=O)O)cc1COc1ccc2c(c1)oc(=O)c1ccccc12 measurement=64

Hey, ATP-citrate synthase (Homo sapiens) (UniProt P53396) data for Cc1ccc(S(=O)(=O)Nc2cc3c(C(=O)O)c(C)oc3c3ccccc23)cc1 : inhibition came out at 42

Hey, ATP-citrate synthase (Homo sapiens) (UniProt P53396) data for O=C(O)c1ccc(COc2ccc3c(c2)oc(=O)c2ccccc23)o1 : inhibition came out at 49

Hey, ATP-citrate synthase (Homo sapiens) (UniProt P53396) data for CCc1ccc(S(=O)(=O)Nc2cc3c(C(=O)O)c(C)oc3c3ccccc23)cc1 : inhibition came out at 97

Hey, ATP-citrate synthase (Homo sapiens) (UniProt P53396) data for Cc1oc(C(=O)O)cc1COc1ccc2c(oc(=O)c3ccccc32)c1C : inhibition came out at 84

----------
compounds and their reported inhibition
target-or-test-system: ATP-citrate synthase (Homo sapiens) (UniProt P53396)
procedure-text: Inhibition of ATP citrate lyase (unknown origin) at 10 uM using sodium citrate as substrate in presence of CoA/ATP by ADP-Glo luminescence assay relative to control
# value in %; strip the unit string

Worked set:
chemical_string=Cc1c(OCc2ccc(C(=O)O)o2)ccc2c3c(c(=O)oc12)CCCC3 units_text=% measurement=18
chemical_string=Cc1ccc(S(=O)(=O)Nc2cc3c(C(=O)O)c(C)oc3c3ccccc23)cc1 units_text=% measurement=12
chemical_string=Cc1oc2c(cc(NS(=O)(=O)c3ccc(C(C)(C)C)cc3)c3ccccc32)c1C(=O)O units_text=% measurement=16
chemical_string=CCCCCCc1cc2c3c(c(=O)oc2cc1OCc1cc(C(=O)O)oc1C)CCCC3 units_text=% measurement=95
chemical_string=Cc1oc(C(=O)O)cc1COc1ccc2c(C)c(Cc3ccccc3)c(=O)oc2c1 units_text=% measurement=45

Below: the item to evaluate.
The value of inhibition measured for the compound Cc1oc(C(=O)O)cc1COc1ccc2c3c(c(=O)oc2c1C)CCCC3 turned out to be 17
